# Test system: A549
# method_summary: Cytotoxicity against human A549 cells assessed as reduction in cell viability incubated for 72 hrs by MTT assay
# Assay type: cell-based
# reported_conditions: A549, 72 h
I'd appreciate it if you could supply IC50 values for the items below.
Answers are plain numbers, in µM.

Below: 6 molecules and their reported IC50.
- molecule: "CCCCCc1cc(O)c2c(c1)OC(C)(CCC=C(C)C)C=C2 (configuration not stated)"
  recorded_endpoint: "IC50"
  quantitative_result: 60
- molecule: "C=C(C)[C@@H]1CC[C@H]2O[C@H]2[C@H]1c1c(O)cc(CCCCC)cc1O"
  recorded_endpoint: "IC50"
  quantitative_result: 45.2
- molecule: "C=C(C)[C@@H]1CCC(C)=C[C@H]1c1c(O)cc(CCCCC)cc1O"
  recorded_endpoint: "IC50"
  quantitative_result: 40
- molecule: "C=C(C)[C@@H]1CCC(C)=C[C@H]1c1c(O)cc(CCC)cc1O"
  recorded_endpoint: "IC50"
  quantitative_result: 39
- molecule: "CCCc1cc(O)c2c(c1)OC(C)(C)[C@@H]1CCC(C)=C[C@@H]21 [TETRAHYDROCANNABIVARIN]"
  recorded_endpoint: "IC50"
  quantitative_result: 90
- molecule: "CCCCCc1cc(O)c2c(c1)OC(C)(C)c1ccc(C)cc1-2"
  recorded_endpoint: "IC50"
  quantitative_result: 91

From here, focus on the item given below.
Ask: Retrieve IC50 measured for `CCCCCc1cc(O)c2c(c1)OC(C)(C)[C@@H]1CCC(C)=C[C@@H]21` and print it.
Result: 45

====

# Test system: PC-3
# method_summary: Cytotoxicity against human PC3 cells assessed as reduction in cell viability incubated for 24 to 72 hrs by MTT assay
# Type: cell-based
recorded_endpoint: Activity

Solved cases below.
- compound: "CCCc1cc(O)c2c(c1)OC(C)(C)[C@@H]1CCC(C)=C[C@@H]21 [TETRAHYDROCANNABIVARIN]"
  target_desc: "PC-3"
  Activity: "Dose-dependent effect"
- compound: "C=C(C)[C@@H]1CC[C@H]2O[C@H]2[C@H]1c1c(O)cc(CCCCC)cc1O"
  target_desc: "PC-3"
  Activity: "Dose-dependent effect"
- compound: "CCCCCc1cc(O)c2c(c1)OC(C)(C)[C@@H]1CCC(C)=C[C@@H]21 [DRONABINOL]"
  target_desc: "PC-3"
  Activity: "Dose-dependent effect"
- compound: "C=C(C)[C@@H]1CCC(C)=C[C@H]1c1c(O)cc(CCCCC)cc1O [CANNABIDIOL]"
  target_desc: "PC-3"
  Activity: "Dose-dependent effect"
- compound: "CCCCCc1cc(O)c2c(c1)OC(C)(CCC=C(C)C)C=C2 (configuration not stated) [CANNABICHROMENE]"
  target_desc: "PC-3"
  Activity: "Dose-dependent effect"

// input: 2 compounds below; output: Activity for each
1. C=C(C)[C@@H]1CCC(C)=C[C@H]1c1c(O)cc(CCC)cc1O [CANNABIDIVARIN]
2. CCCCCc1cc(O)c2c(c1)OC(C)(C)c1ccc(C)cc1-2 [CANNABINOL]

Result:
["Dose-dependent effect", "Dose-dependent effect"]

====

# Test system: A549
# method_summary: Cytotoxicity against human A549 cells assessed as reduction in cell viability incubated for 24 to 72 hrs by MTT assay
# Type: cell-based
recorded_endpoint: Activity

- molecule: "CCCCCc1cc(O)c2c(c1)OC(C)(C)[C@@H]1CCC(C)=C[C@@H]21"
  target_desc: "A549"
  recorded_endpoint: "Activity"
  result: "Dose-dependent effect"
- molecule: "CCCCCc1cc(O)c2c(c1)OC(C)(CCC=C(C)C)C=C2 (stereo not drawn)"
  target_desc: "A549"
  recorded_endpoint: "Activity"
  result: "Dose-dependent effect"
- molecule: "C=C(C)[C@@H]1CCC(C)=C[C@H]1c1c(O)cc(CCCCC)cc1O"
  target_desc: "A549"
  recorded_endpoint: "Activity"
  result: "Dose-dependent effect"

====

# Test system: MCF7
# method_summary: Cytotoxicity against human MCF7 cells assessed as reduction in cell viability incubated for 72 hrs by MTT assay
# Format: cell-based
# reported_conditions: MCF7, 72 h
recorded_endpoint: pIC50
One number for each entry, as −log10 of the molar value.

- compound: "C=C(C)[C@@H]1CCC(C)=C[C@H]1c1c(O)cc(CCCCC)cc1O"
  recorded_endpoint: "pIC50"
  quantitative_result: 4.26
- compound: "CCCCCc1cc(O)c2c(c1)OC(C)(C)[C@@H]1CCC(C)=C[C@@H]21"
  recorded_endpoint: "pIC50"
  quantitative_result: 4.24

Report pIC50 for every entry below.
1. CCCc1cc(O)c2c(c1)OC(C)(C)[C@@H]1CCC(C)=C[C@@H]21 [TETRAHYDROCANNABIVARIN]
2. C=C(C)[C@@H]1CCC(C)=C[C@H]1c1c(O)cc(CCC)cc1O
3. C=C(C)[C@@H]1CC[C@H]2O[C@H]2[C@H]1c1c(O)cc(CCCCC)cc1O
4. CCCCCc1cc(O)c2c(c1)OC(C)(C)c1ccc(C)cc1-2
5. CCCCCc1cc(O)c2c(c1)OC(C)(CCC=C(C)C)C=C2 (configuration not stated)

Result:
[4.10, 4.28, 4.33, 4.09, 4.40]

====

# Tested on: A549
# method_summary: Cytotoxicity against human A549 cells assessed as reduction in cell viability incubated for 24 to 72 hrs by MTT assay
# Format: cell-based
recorded_endpoint: Activity

- compound: "C=C(C)[C@@H]1CCC(C)=C[C@H]1c1c(O)cc(CCC)cc1O"
  recorded_endpoint: "Activity"
  result: "Dose-dependent effect"
- compound: "CCCCCc1cc(O)c2c(c1)OC(C)(C)c1ccc(C)cc1-2"
  recorded_endpoint: "Activity"
  result: "Dose-dependent effect"
- compound: "C=C(C)[C@@H]1CC[C@H]2O[C@H]2[C@H]1c1c(O)cc(CCCCC)cc1O"
  recorded_endpoint: "Activity"
  result: "Dose-dependent effect"
- compound: "CCCc1cc(O)c2c(c1)OC(C)(C)[C@@H]1CCC(C)=C[C@@H]21 [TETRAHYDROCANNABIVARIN]"
  recorded_endpoint: "Activity"
  result: "Dose-dependent effect"
